Source of measurements: the Kinase Knowledgebase extract (Sharma et al. 2016)

Consider the following molecules; for each one, report its pIC50.
Target: EGFR (UniProt P00533)
Sequence (P00533 whole entry, looked up): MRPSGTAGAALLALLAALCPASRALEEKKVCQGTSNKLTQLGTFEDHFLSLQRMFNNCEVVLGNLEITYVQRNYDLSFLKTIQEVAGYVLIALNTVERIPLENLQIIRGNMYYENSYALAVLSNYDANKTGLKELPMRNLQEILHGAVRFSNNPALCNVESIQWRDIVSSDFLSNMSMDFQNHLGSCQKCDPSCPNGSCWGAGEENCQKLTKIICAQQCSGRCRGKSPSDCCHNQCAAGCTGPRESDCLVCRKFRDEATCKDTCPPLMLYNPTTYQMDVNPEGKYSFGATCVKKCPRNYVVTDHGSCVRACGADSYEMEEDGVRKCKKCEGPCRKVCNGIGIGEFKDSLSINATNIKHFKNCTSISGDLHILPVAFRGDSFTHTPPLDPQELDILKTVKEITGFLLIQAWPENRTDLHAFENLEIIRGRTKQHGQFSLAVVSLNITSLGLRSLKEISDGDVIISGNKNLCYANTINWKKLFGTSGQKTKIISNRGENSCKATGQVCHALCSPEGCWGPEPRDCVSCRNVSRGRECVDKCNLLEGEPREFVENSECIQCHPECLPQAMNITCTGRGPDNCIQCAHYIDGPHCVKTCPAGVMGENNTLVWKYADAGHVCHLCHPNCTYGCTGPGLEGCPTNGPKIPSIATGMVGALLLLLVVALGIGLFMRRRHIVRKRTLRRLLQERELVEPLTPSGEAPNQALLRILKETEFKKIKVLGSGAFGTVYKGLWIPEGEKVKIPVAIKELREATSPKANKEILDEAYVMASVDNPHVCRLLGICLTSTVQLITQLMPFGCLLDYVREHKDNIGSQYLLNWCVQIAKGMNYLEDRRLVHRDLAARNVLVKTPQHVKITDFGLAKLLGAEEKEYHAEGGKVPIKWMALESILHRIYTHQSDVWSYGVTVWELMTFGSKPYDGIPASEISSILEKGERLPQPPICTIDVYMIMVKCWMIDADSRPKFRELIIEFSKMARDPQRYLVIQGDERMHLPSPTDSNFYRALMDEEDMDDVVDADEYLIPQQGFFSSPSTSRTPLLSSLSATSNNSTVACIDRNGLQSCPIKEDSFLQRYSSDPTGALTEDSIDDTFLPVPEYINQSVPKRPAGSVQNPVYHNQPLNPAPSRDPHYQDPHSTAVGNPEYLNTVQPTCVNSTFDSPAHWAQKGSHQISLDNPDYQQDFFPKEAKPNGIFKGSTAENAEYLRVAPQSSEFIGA
One number for each entry, as −log10 of the molar value.

These recorded examples may help you get a feel for the data.
[[record]]
smiles_entry = "COc1ccccc1-c1ccc2c(c1)NC(=O)/C2=C\\c1cc2c([nH]1)CCCC2"
assayed_target = "EGFR (UniProt P00533)"
reported_metric = "pIC50"
result_number = 4.47

[[record]]
smiles_entry = "CCOc1cccc(-c2ccc3c(c2)NC(=O)/C3=C\\c2cc(C(C)C)c(OC)c(C(C)C)c2)c1"
assayed_target = "EGFR (UniProt P00533)"
reported_metric = "pIC50"
result_number = 4.71


Batch of 2 molecules: report pIC50 for each.
1. Cc1cc(C)c(NC(=O)c2cc(C(C)(C)C)nn2Cc2ccccc2)cn1
2. COc1cccc(-c2ccc3c(c2)NC(=O)/C3=C\c2[nH]c3c(c2CCC(=O)O)CCCC3)c1

1: 4.16; 2: 4.43
